Taken from patent US12077503B2.

Let's look at some compounds and their measured Plant response rating, Pigweed.
# Test system: pigweed (Amaranthus retroflexus)
# TEST METHOD NOTES: Test A postemergence
# Type: in vivo
# EXPERIMENTAL CONDITIONS: 500 g ai/ha, postemergence; 0 to 100 scale, 0 no effect, 100 complete control

>  <COMPOUND>
O=C1NCC(c2cccc(OCC(F)F)c2)C1C(=O)Nc1ccccc1Cl (stereo not drawn)

>  <Plant response rating, Pigweed>
20

$$$$
>  <COMPOUND>
COC(=O)c1ccccc1NC(=O)C1C(=O)NCC1c1ccc(F)c(F)c1 (stereo not drawn)

>  <Plant response rating, Pigweed>
0

$$$$
>  <COMPOUND>
CN1CC(c2ccc(C(F)(F)F)c(F)c2)C(C(=O)Nc2ccccc2S(C)(=O)=O)C1=O (stereo not drawn)

>  <Plant response rating, Pigweed>
70

$$$$
